The measurements presented in this section are drawn from paper PMC7583830.

# Protocol Details: Biodistribution in BALB/c mice
# Assay type: in vivo
# Condition Label: female, BALB/c, mouse, kidneys, iv, 30 MBq, total radioactivity; 1 h p.i.; read-out: uptake in kidneys
Where a SMILES comes first, the peptide text is derived from it. [ ]: non-standard residue; d: D form. The star is where a group is joined. DOTA = O=C(O)CN1CCN(CC(=O)O)CCN(CC(=O)*)CCN(CC(=O)O)CC1; 1Nal = N[C@@H](Cc1cccc2ccccc12)C(=O)O; NMeNle = CCCC[C@H](NC)C(=O)O
Readout Kind: tissue uptake at 1 h (%ID/g)
Lab book: enter the figure in %ID/g, no units written.

Lookup: If you can, please state the reported tissue uptake at 1 h value of CCCC[C@@H](C(=O)N[C@@H](CC(=O)O)C(=O)N[C@@H](Cc1cccc2ccccc12)C(N)=O)N(C)C(=O)[C@H](Cc1c[nH]c2ccccc12)NC(=O)CNC(=O)[C@H](Cc1ccc(O)cc1)NC(=O)[C@@H]1CCCN1C(=O)[C@@H](CCC(=O)O)NC(=O)CN1CCN(CC(=O)O)CCN(CC(=O)O)CCN(CC(=O)O)CC1 [[^177Lu]Lu-1, metal not drawn] ({DOTA}-[dE]PYGW[NMeNle]D[1Nal]-NH2) .
Found: 7.01

###

intact radiopeptide values, listed per item
# Protocol Details: Stability in fresh human serum (radio-HPLC)
# Type: in vitro ADME
# Condition Label: 24 h incubation, 37 °C
Where a SMILES comes first, the peptide text is derived from it. [ ]: non-standard residue; d: D form. The star is where a group is joined. DOTA = O=C(O)CN1CCN(CC(=O)O)CCN(CC(=O)*)CCN(CC(=O)O)CC1; 1Nal = N[C@@H](Cc1cccc2ccccc12)C(=O)O; NMeNle = CCCC[C@H](NC)C(=O)O
Value expressed in %; do not type the unit.

Lookup: Which intact radiopeptide value belongs to CCCC[C@@H](C(=O)N[C@@H](CC(=O)O)C(=O)N[C@@H](Cc1cccc2ccccc12)C(N)=O)N(C)C(=O)[C@H](Cc1c[nH]c2ccccc12)NC(=O)CNC(=O)[C@H](Cc1ccc(O)cc1)NC(=O)[C@@H]1CCCN1C(=O)[C@@H](CCC(=O)O)NC(=O)CN1CCN(CC(=O)O)CCN(CC(=O)O)CCN(CC(=O)O)CC1 [[^177Lu]Lu-1, metal not drawn] ({DOTA}-[dE]PYGW[NMeNle]D[1Nal]-NH2) ?
Found: 96.2

###

# Protocol Details: Biodistribution in BALB/c mice
# Type: in vivo
# Condition Label: female, BALB/c, mouse, blood, iv, 30 MBq, total radioactivity; 1 h p.i.; read-out: uptake in blood
Where a SMILES comes first, the peptide text is derived from it. [ ]: non-standard residue; d: D form. The star is where a group is joined. DOTA = O=C(O)CN1CCN(CC(=O)O)CCN(CC(=O)*)CCN(CC(=O)O)CC1; 1Nal = N[C@@H](Cc1cccc2ccccc12)C(=O)O; NMeNle = CCCC[C@H](NC)C(=O)O
Readout Kind: tissue uptake at 1 h (%ID/g)
Express your answer in %ID/g, writing the number without its unit.

Lookup: State the recorded tissue uptake at 1 h for this entry: CCCC[C@@H](C(=O)N[C@@H](CC(=O)O)C(=O)N[C@@H](Cc1cccc2ccccc12)C(N)=O)N(C)C(=O)[C@H](Cc1c[nH]c2ccccc12)NC(=O)CNC(=O)[C@H](Cc1ccc(O)cc1)NC(=O)[C@@H]1CCCN1C(=O)[C@@H](CCC(=O)O)NC(=O)CN1CCN(CC(=O)O)CCN(CC(=O)O)CCN(CC(=O)O)CC1 [[^177Lu]Lu-1, metal not drawn] ({DOTA}-[dE]PYGW[NMeNle]D[1Nal]-NH2)
Found: 2.05

###

# Protocol Details: Biodistribution in BALB/c mice
# Format: in vivo
# Condition Label: female, BALB/c, mouse, spleen, iv, 30 MBq, total radioactivity; 10 min p.i.; read-out: uptake in spleen
Where a SMILES comes first, the peptide text is derived from it. [ ]: non-standard residue; d: D form. The star is where a group is joined. DOTA = O=C(O)CN1CCN(CC(=O)O)CCN(CC(=O)*)CCN(CC(=O)O)CC1; 1Nal = N[C@@H](Cc1cccc2ccccc12)C(=O)O; NMeNle = CCCC[C@H](NC)C(=O)O
Readout Kind: tissue uptake at 10 min (%ID/g)
Enter your answer as a number in %ID/g; do not include the unit.

Lookup: Bench note: what tissue uptake at 10 min did CCCC[C@@H](C(=O)N[C@@H](CC(=O)O)C(=O)N[C@@H](Cc1cccc2ccccc12)C(N)=O)N(C)C(=O)[C@H](Cc1c[nH]c2ccccc12)NC(=O)CNC(=O)[C@H](Cc1ccc(O)cc1)NC(=O)[C@@H]1CCCN1C(=O)[C@@H](CCC(=O)O)NC(=O)CN1CCN(CC(=O)O)CCN(CC(=O)O)CCN(CC(=O)O)CC1 [[^177Lu]Lu-1, metal not drawn] ({DOTA}-[dE]PYGW[NMeNle]D[1Nal]-NH2) show?
Found: 3.7

###

# Protocol Details: Biodistribution in BALB/c mice
# Type: in vivo
# Condition Label: female, BALB/c, mouse, spleen, iv, 30 MBq, total radioactivity; 1 h p.i.; read-out: uptake in spleen
Where a SMILES comes first, the peptide text is derived from it. [ ]: non-standard residue; d: D form. The star is where a group is joined. DOTA = O=C(O)CN1CCN(CC(=O)O)CCN(CC(=O)*)CCN(CC(=O)O)CC1; 1Nal = N[C@@H](Cc1cccc2ccccc12)C(=O)O; NMeNle = CCCC[C@H](NC)C(=O)O
Readout Kind: tissue uptake at 1 h

Lookup: What value of measured tissue uptake at 1 h is listed for CCCC[C@@H](C(=O)N[C@@H](CC(=O)O)C(=O)N[C@@H](Cc1cccc2ccccc12)C(N)=O)N(C)C(=O)[C@H](Cc1c[nH]c2ccccc12)NC(=O)CNC(=O)[C@H](Cc1ccc(O)cc1)NC(=O)[C@@H]1CCCN1C(=O)[C@@H](CCC(=O)O)NC(=O)CN1CCN(CC(=O)O)CCN(CC(=O)O)CCN(CC(=O)O)CC1 [[^177Lu]Lu-1, metal not drawn] ({DOTA}-[dE]PYGW[NMeNle]D[1Nal]-NH2) ?
Found: 0.79 %ID/g

###

# Protocol Details: Stability in fresh human serum (radio-HPLC)
# Format: in vitro ADME
# Condition Label: 24 h incubation, 37 °C
Where a SMILES comes first, the peptide text is derived from it. [ ]: non-standard residue; d: D form. The star is where a group is joined. DOTA = O=C(O)CN1CCN(CC(=O)O)CCN(CC(=O)*)CCN(CC(=O)O)CC1; 1Nal = N[C@@H](Cc1cccc2ccccc12)C(=O)O; NMeNle = CCCC[C@H](NC)C(=O)O
Readout Kind: intact radiopeptide (%)
Your answer is read as %, so omit the unit and give the number.

Solved cases below.
Lookup: Sample CCCC[C@@H](C(=O)N[C@@H](CC(=O)O)C(=O)O)N(C)C(=O)[C@H](Cc1c[nH]c2ccccc12)NC(=O)CNC(=O)[C@H](Cc1ccc(O)cc1)NC(=O)[C@@H]1CCCN1C(=O)[C@@H](CCC(=O)O)NC(=O)CN1CCN(CC(=O)O)CCN(CC(=O)O)CCN(CC(=O)O)CC1 [[^177Lu]Lu-M2, metal not drawn] ({DOTA}-[dE]PYGW[NMeNle]D-OH; C-terminus assumed) — what was its intact radiopeptide?
Found: 98.1

Lookup: Which intact radiopeptide reading was recorded for the compound CCCC[C@@H](C(=O)O)N(C)C(=O)[C@H](Cc1c[nH]c2ccccc12)NC(=O)CNC(=O)[C@H](Cc1ccc(O)cc1)NC(=O)[C@@H]1CCCN1C(=O)[C@@H](CCC(=O)O)NC(=O)CN1CCN(CC(=O)O)CCN(CC(=O)O)CCN(CC(=O)O)CC1 [[^177Lu]Lu-M3, metal not drawn] ({DOTA}-[dE]PYGW[NMeNle]-OH; C-terminus assumed) ?
Found: 29.7

Would you kindly look at the next entry?
Lookup: Recorded intact radiopeptide of CCCC[C@@H](C(=O)N[C@@H](CC(=O)O)C(=O)N[C@@H](Cc1cccc2ccccc12)C(=O)O)N(C)C(=O)[C@H](Cc1c[nH]c2ccccc12)NC(=O)CNC(=O)[C@H](Cc1ccc(O)cc1)NC(=O)[C@@H]1CCCN1C(=O)[C@@H](CCC(=O)O)NC(=O)CN1CCN(CC(=O)O)CCN(CC(=O)O)CCN(CC(=O)O)CC1 [[^177Lu]Lu-M1, metal not drawn] ({DOTA}-[dE]PYGW[NMeNle]D[1Nal]-OH) , please.
Found: 89.1
